- System: RAW-Dual (murine macrophage reporter line)
- method: NF-kB reporter (SEAP) activity fold change vs agonist alone; higher = enhanced NF-kB activity
- experimental-conditions: modulator concentration 10 µM; agonist: LPS 0.1 ug/mL
Could you please classify the records by NF-kB reporter using these ranges: bucket 1 = under 0.9, bucket 2 = from 0.9 up to 1, bucket 3 = 1 and over

Query block: Classify this compound: `CCN(CC)C(=O)/C(C#N)=C/c1cc(O)c(O)c([N+](=O)[O-])c1`
Result block: bucket 3

Query block: Classify this compound: Cc1ccc(O)c(C2=NOC(O)(C(F)(F)F)C2)c1 (stereo unspecified)
Result block: bucket 2

Query block: Classify this compound: CN(C)CCOC(c1ccc(Cl)cc1)c1ccccn1.O=C(O)/C=C\C(=O)O (stereo unspecified)
Result block: bucket 3

Query block: Classify this compound: `O=c1c(O)c(-c2cc(O)c(O)c(O)c2)oc2cc(O)cc(O)c12`
Result block: bucket 1

Query block: Classify this compound: `CCCc1nc(-c2ccccc2)c(-c2ccc(OC)c(OC)c2)c(=O)[nH]1`
Result block: bucket 1

Query block: Classify this compound: `Nc1ccn([C@@H]2O[C@H](CO)[C@@H](O)C2(F)F)c(=O)n1`
Result block: bucket 3

Query block: Classify this compound: CC12C=CC(CO)(O1)C1C(=O)NC(=O)C12 (stereo unspecified)
Result block: bucket 3

Query block: Classify this compound: `CCOC(=O)C1=C(C)NC(=Cc2ccccc2[N+](=O)[O-])C1=O`
Result block: bucket 1

Query block: Classify this compound: `O=[N+]([O-])c1ccc(Cl)c(C=Nc2cccc3c(N=Cc4cc([N+](=O)[O-])ccc4Cl)cccc23)c1`
Result block: bucket 3

Query block: Classify this compound: Cc1noc(C)c1CCC(=O)N1CCCC(c2nnc(C(F)(F)F)o2)C1 (stereo unspecified)
Result block: bucket 3

Query block: Classify this compound: `CCCCCc1ccc(-c2ccc(-c3noc(-c4ccc(CCCC)cc4)n3)cc2)cc1`
Result block: bucket 2

Query block: Classify this compound: `COC(=O)C1=CN(C2CC2)C=C(C(=O)OC)C1c1ccccc1Cl`
Result block: bucket 1

Query block: Classify this compound: COc1cccc(CCc2ccccc2OCC(CN(C)C)OC(=O)CCC(=O)O)c1.Cl (stereo unspecified)
Result block: bucket 2

Query block: Classify this compound: `CCNC(=O)c1ccc(CN2CCc3ccccc3C2)cc1`
Result block: bucket 3

###

Exercise: state measured IRF reporter for each of the compounds provided.
- Test system: RAW-Dual (murine macrophage reporter line)
- method: IRF reporter (Lucia luciferase) activity fold change vs agonist alone; higher = enhanced IRF activity
- experimental-conditions: modulator concentration 10 µM; agonist: LPS 0.1 ug/mL
When you answer, write just the number.

Per the record, Cc1ccc(N2CC(C(=O)NCC3CCCO3)CC2=O)cc1 (stereo unspecified) has IRF reporter of 1.05

Per the record, `C=CCc1ccc(O)c(OC)c1` has IRF reporter of 1.05

Per the record, O=C(NCC1CCCO1)c1[nH]nnc1-c1ccc(F)cc1 (stereo unspecified) has IRF reporter of 1.03

Per the record, `Ic1cccc(Cn2nnc(-c3ccccc3)n2)c1` has IRF reporter of 1.28

Per the record, Cc1ncc(CC(=O)N2CCC(c3ccccc3Cl)S(=O)(=O)CC2)s1 (stereo unspecified) has IRF reporter of 0.981

Per the record, CC(C)(C)C(=O)C(Oc1ccc(Cl)cc1)n1ccnc1 (stereo unspecified) has IRF reporter of 1.31

Per the record, `O=C(NNC(=O)c1sc2cc(F)ccc2c1Cl)Nc1ccc(Cl)cc1` has IRF reporter of 1.02

Per the record, Cc1ccc(CCC(=O)N2CC(N3C(=O)C4CC=CCC4C3=O)C2)cc1F (stereo unspecified) has IRF reporter of 1.05

Per the record, Cc1nc2n(c(=O)c1CCN1CCC(c3noc4cc(F)ccc34)CC1)CCCC2O (stereo unspecified) has IRF reporter of 1.26

Per the record, CN1C2CCCC1CC(NC(=O)c1nn(C)c3ccccc13)C2.Cl (stereo unspecified) has IRF reporter of 1.13

Per the record, `Cc1ccc(OCCCOc2cccc3cccnc23)c(Cl)c1` has IRF reporter of 1.32

Per the record, `CN(C)CCNC(=S)NC(=O)C12CCC3CC(CC(C3)C1)C2` has IRF reporter of 1.5

Per the record, CC1=C(C(=O)Nc2cccc(C)n2)C(c2ccsc2)C2=C(CC(C)(C)CC2=O)N1 (stereo unspecified) has IRF reporter of 1.2

Per the record, `CS(=O)(=O)NCc1cccc(Oc2ccc(F)cc2)c1` has IRF reporter of 0.992

Per the record, CCCCCCOc1ccc(N2C(=O)CC(SC(=Nc3ccccc3)Nc3ccccc3)C2=O)cc1 (stereo unspecified) has IRF reporter of 1.45

Per the record, `CN(C)CCCN1c2ccccc2Sc2ccc(Cl)cc21.Cl` has IRF reporter of 1.13

Per the record, `CN1CCN(CCCN2c3ccccc3Sc3ccc(S(=O)(=O)N(C)C)cc32)CC1` has IRF reporter of 0.851

Per the record, `O=C(O)CCCCCN1C(=O)c2ccccc2C1=O` has IRF reporter of 1.35

Per the record, `O=C(O)/C=C/c1ccc(Cn2ccnc2)cc1` has IRF reporter of 1.16

Per the record, `CC(=O)Nc1nnc(S(N)(=O)=O)s1` has IRF reporter of 1.28

Per the record, `O=C(NC(=S)Nc1ccccc1C(F)(F)F)c1cccc(I)c1` has IRF reporter of 1.24

Per the record, `CNC(=O)Cc1cn(Cc2ccccc2)c2ccccc12` has IRF reporter of 0.977

Per the record, O=C(NC1CC2CCC1C2)c1ccccc1Cl (stereo unspecified) has IRF reporter of 1.35

Per the record, `O=C(Cn1nc(S(=O)(=O)c2cccc(F)c2)ccc1=O)N1CCc2ccccc2C1` has IRF reporter of 1.29

Per the record, `C1N2CN3CN1CN(C2)C3` has IRF reporter of 0.958

Per the record, C#CCCCCCCCCCCCC(O)CC(O)COC(C)=O (stereo unspecified) has IRF reporter of 1.17

Per the record, `ON=C1ON=C(c2ccccc2)C1=NO` has IRF reporter of 1.29

Per the record, `Cc1cc(NC(=O)CC(C)C)ccc1N1CCCCC1=O` has IRF reporter of 1.23

Per the record, `CN(C)CCCOc1nn(Cc2ccccc2)c2ccccc12.Cl` has IRF reporter of 1.14

Per the record, `CS(=O)(=O)N(CC(=O)Nc1ccccc1Cl)c1ccc(Cl)c(C(F)(F)F)c1` has IRF reporter of 1.35

Per the record, `CCN(CC)CCNC(=O)c1c(C)[nH]c(/C=C2\C(=O)Nc3ccc(F)cc32)c1C` has IRF reporter of 0.0794

Per the record, O=C1C(N2CCC(O)C2)CCN1CC(F)(F)F (stereo unspecified) has IRF reporter of 1.22

Per the record, `O=C(Nc1cc(C(F)(F)F)cc(C(F)(F)F)c1)c1cc2ccccc2o1` has IRF reporter of 1.32

Per the record, CN(C)C(CNC(=O)NCc1ccc(F)cc1)c1ccc2c(c1)CCO2 (stereo unspecified) has IRF reporter of 1

Per the record, `CC(C)c1c(C(=O)Nc2ccccc2)c(-c2ccccc2)c(-c2ccc(F)cc2)n1CC[C@@H](O)C[C@@H](O)CC(=O)O` has IRF reporter of 0.928

Per the record, `CN1C(=O)C(=NNC(=O)COc2cccc(Br)c2)c2ccccc21` has IRF reporter of 1.48

Per the record, `COc1ccc(-n2cnc3cc(NC(C)=O)ccc32)cc1` has IRF reporter of 1.19

Per the record, `O=C(CSC1CCCCC1)Nc1cc(C(F)(F)F)ccc1Cl` has IRF reporter of 2.2

Per the record, `Oc1c(Cl)cc(Cl)cc1C=Nc1cc(Cl)cc(Cl)c1` has IRF reporter of 1.05

Per the record, `CCCCc1oc2ccc(NS(C)(=O)=O)cc2c1C(=O)c1ccc(OCCCN(CCCC)CCCC)cc1.Cl` has IRF reporter of 1.2

Per the record, `CCCCN(CCCC)CC(=O)Nc1c2c(nc3ccccc13)CCC2.O=C(O)C(=O)O` has IRF reporter of 1.98
